Tested on: intracellular proteome of ENR+CD and ENR organoids
Assay: LC-MS/MS TMT proteomics of ENR+CD versus ENR organoids
Type: cell-based, C57BL/6 mice
Conditions: up = enriched in ENR+CD, down = enriched in ENR; FDR<0.05 and log fold change cut-off
result_type: change

Study these solved cases before continuing.
[
  {
    "molecule": "Q80XU3 (protein, UniProt Q80XU3 1-234, looked up, full-length) MSRPVRNRKVVDYSQFQESDDADEDYGRDSGPPAKKIRSSPREAKNKRRSGKNSQEDSEDSEEKDVKTKKDDSHSAEDSEDEKDDHKNVRQQRQAASKAASKQREMLLEDVGSEEEPEEDDEAPFQEKDSGSDEDFLMEDDDDSDYGSSKKKNKKMVKKSKPERKEKKMPKPRLKATVTPSPVKGKAKVGRPTASKKSKEKTPSPKEEDEEAESPPEKKSGDEGSEDEASSGED",
    "change": "down"
  },
  {
    "molecule": "P27600 (protein, UniProt P27600 1-379, looked up, full-length) MSGVVRTLSRCLLPAEAGARERRAGAARDAEREARRRSRDIDALLARERRAVRRLVKILLLGAGESGKSTFLKQMRIIHGREFDQKALLEFRDTIFDNILKGSRVLVDARDKLGIPWQHSENEKHGMFLMAFENKAGLPVEPATFQLYVPALSALWRDSGIREAFSRRSEFQLGESVKYFLDNLDRIGQLNYFPSKQDILLARKATKGIVEHDFVIKKIPFKMVDVGGQRSQRQKWFQCFDGITSILFMVSSSEYDQVLMEDRRTNRLVESMNIFETIVNNKLFFNVSIILFLNKMDLLVEKVKSVSIKKHFPDFKGDPHRLEDVQRYLVQCFDRKRRNRSKPLFHHFTTAIDTENIRFVFHAVKDTILQENLKDIMLQ",
    "change": "down"
  },
  {
    "molecule": "Q3U0B3 (protein, UniProt Q3U0B3 1-260, looked up, full-length) MTRAGMERWRDRLALVTGASGGIGAAVARALVQQGLKVVGCARTVGNIEELAAECKSAGYPGTLIPYRCDLSNEEDILSMFSAVRSQHSGVDICINNAGMARPDTLLSGSTSGWKDMFNVNVLALSICTREAYQSMKERNIDDGHIININSMCGHRVPPQSVIHFYSATKYAVTALTEGLRQELLEAQTHIRATCISPGLVETQFAFKLHDKDPGEAAATYEHIKCLRPEDVAEAVIYVLSTPPHVQVGDIQMRPTEQVT",
    "change": "down"
  },
  {
    "molecule": "P60824 (protein, UniProt P60824 1-172, looked up, full-length) MASDEGKLFVGGLSFDTNEQALEQVFSKYGQISEVVVVKDRETQRSRGFGFVTFENIDDAKDAMMAMNGKSVDGRQIRVDQAGKSSDNRSRGYRGGSAGGRGFFRGGRSRGRGFSRGGGDRGYGGGRFESRSGGYGGSRDYYASRSQGGSYGYRSSGGSYRDSYDSYATHNE",
    "change": "up"
  },
  {
    "molecule": "Q9CZT6 (protein, UniProt Q9CZT6 1-276, looked up, full-length) MADDLGDEWWENQPAAASSPEQSGGEEGGDTEMTQQDTAPVPEKTQQPTECFLTQTKEPKAEDSRKTRKWKKKKISDILAKSEPKPGTPEDLQKLIRDHYSSSRSVIELEELHLPDSCFLKANDLTHSLSSYLKEICPKWVKLRKTHNEKKSVLMLILCSSAVRALELIRSLTAFKGDAKVMKLFAKHIKVQEQVKLLEKRVIHLGVGTPGRIKELVKQDGLHLNPLKFLVFDWNWRDQKLRRMMDIPEIRKEVFELLDMGVFSLCKSDSLKLGLF",
    "change": "down"
  },
  {
    "molecule": "Q8VE33 (protein, UniProt Q8VE33 1-370, looked up, full-length) MATPNNLTPTNCSWWPISALESDAAKPVETPDAPEASSPAHWPKESLVLYHWTQSFSSQKRLQVRLVIAEKGLACEERDVSLPQSEHKEPWFMRLNLGEEVPVIIHRDNIISDYDQIIDYVERTFTGEHVVALMPEAGSPQHARVLQYRELLDALPMDAYTHGCILHPELTTDSMIPKYATAEIRRHLANATTDLMKLDHEEEPQLSEPYLSKQKKLMAKILEHDDVSYLKKILGELAMVLDQIEAELEKRKLENEGQTCELWLCGCAFTLADVLLGATLHRLKFLGLSKKYWEDGSRPNLQSFFERVQRRFAFRKVLGDIHTTLLSAVIPNAFRLVKRKPPSFFGASFLMGSLGGMGYFAYWYLKKKYI",
    "change": "up"
  }
]

Measured change, Q62395 (protein, UniProt Q62395 1-81, looked up, full-length) METRALWLMLLVVLVAGSSGIAADYVGLSPSQCMVPANVRVDCGYPSVTSEQCNNRGCCFDSSIPNVPWCFKPLQETECTF : up
